Value source: patent US20080318246A1

biological target: 14-3-3τ (UniProt P27348); experiment: cell-based or functional assay
Sequence (P27348 whole entry): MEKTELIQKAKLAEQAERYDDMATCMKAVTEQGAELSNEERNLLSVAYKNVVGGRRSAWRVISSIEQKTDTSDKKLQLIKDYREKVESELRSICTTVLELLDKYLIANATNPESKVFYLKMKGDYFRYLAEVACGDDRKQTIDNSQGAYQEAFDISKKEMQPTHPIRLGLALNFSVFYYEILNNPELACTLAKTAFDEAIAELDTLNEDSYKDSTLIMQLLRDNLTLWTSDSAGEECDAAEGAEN
parameterMeasured: PKA-induced fluorescence change; Alizarin Red 5x (fold)

**Query** Which PKA-induced fluorescence change; Alizarin Red 5x value is on record for P4, Ac-GRDap(Pyr)GRRFSYP-amide, serine-phosphorylated by PKA in the assay (peptide) ?
**Result** 1.36

**Query** Which PKA-induced fluorescence change; Alizarin Red 5x value is on record for P3, Ac-GRTDap(Pyr)RRFSYP-amide, serine-phosphorylated by PKA in the assay (peptide) ?
**Result** 1.28

**Query** Which PKA-induced fluorescence change; Alizarin Red 5x value is on record for P2, Ac-GRTGRRDap(Pyr)SYP-amide, serine-phosphorylated by PKA in the assay (peptide) ?
**Result** 1.59

**Query** Which PKA-induced fluorescence change; Alizarin Red 5x value is on record for phosphorylated P5 peptide AcDap(Pyr)RTGRRFS(PO3 2-)YP-amide ?
**Result** 1.7

* * *

target: 14-3-3τ (UniProt P27348); experiment: cell-based or functional assay
parameterMeasured: PKA-induced fluorescence change; Aniline Blue WS 25x (fold)

**Query** Which PKA-induced fluorescence change; Aniline Blue WS 25x value is on record for phosphorylated P5 peptide AcDap(Pyr)RTGRRFS(PO3 2-)YP-amide ?
**Result** 6.04

I. P2, Ac-GRTGRRDap(Pyr)SYP-amide, serine-phosphorylated by PKA in the assay (peptide)
II. P4, Ac-GRDap(Pyr)GRRFSYP-amide, serine-phosphorylated by PKA in the assay (peptide)
III. P3, Ac-GRTDap(Pyr)RRFSYP-amide, serine-phosphorylated by PKA in the assay (peptide)
**Query** In this exercise, place the 3 substances in ascending sequence of their recorded PKA-induced fluorescence change; Aniline Blue WS 25x. Form field (ranking): labels in requested order.
**Result** I, III, II

* * *

target: 14-3-3τ (UniProt P27348); experiment: cell-based or functional assay
parameterMeasured: PKA-induced fluorescence change; Tartrazine 10x (fold)

**Query** Which PKA-induced fluorescence change; Tartrazine 10x value is on record for P3, Ac-GRTDap(Pyr)RRFSYP-amide, serine-phosphorylated by PKA in the assay (peptide) ?
**Result** 1.34

**Query** Which PKA-induced fluorescence change; Tartrazine 10x value is on record for P2, Ac-GRTGRRDap(Pyr)SYP-amide, serine-phosphorylated by PKA in the assay (peptide) ?
**Result** 1.61

**Query** Which PKA-induced fluorescence change; Tartrazine 10x value is on record for phosphorylated P5 peptide AcDap(Pyr)RTGRRFS(PO3 2-)YP-amide ?
**Result** 1.52

**Query** Which PKA-induced fluorescence change; Tartrazine 10x value is on record for P4, Ac-GRDap(Pyr)GRRFSYP-amide, serine-phosphorylated by PKA in the assay (peptide) ?
**Result** 1.42

* * *

target: 14-3-3τ (UniProt P27348); assay: cell-based or functional assay
parameterMeasured: PKA-induced fluorescence change; Chlorazol Black E 10x (fold)

**Query** Which PKA-induced fluorescence change; Chlorazol Black E 10x value is on record for P3, Ac-GRTDap(Pyr)RRFSYP-amide, serine-phosphorylated by PKA in the assay (peptide) ?
**Result** 0.71

P. P4, Ac-GRDap(Pyr)GRRFSYP-amide, serine-phosphorylated by PKA in the assay (peptide)
Q. phosphorylated P5 peptide AcDap(Pyr)RTGRRFS(PO3 2-)YP-amide
R. P2, Ac-GRTGRRDap(Pyr)SYP-amide, serine-phosphorylated by PKA in the assay (peptide)
**Query** Arrange by PKA-induced fluorescence change; Chlorazol Black E 10x, high to low. Form field (ranking): labels in requested order.
**Result** R, Q, P
(R: 2.84 fold, Q: 1.52 fold, P: 0.93 fold)
